- Tested on: FGFR2 (Homo sapiens (Human), UniProt P21802)
- Sequence (P21802 22-821): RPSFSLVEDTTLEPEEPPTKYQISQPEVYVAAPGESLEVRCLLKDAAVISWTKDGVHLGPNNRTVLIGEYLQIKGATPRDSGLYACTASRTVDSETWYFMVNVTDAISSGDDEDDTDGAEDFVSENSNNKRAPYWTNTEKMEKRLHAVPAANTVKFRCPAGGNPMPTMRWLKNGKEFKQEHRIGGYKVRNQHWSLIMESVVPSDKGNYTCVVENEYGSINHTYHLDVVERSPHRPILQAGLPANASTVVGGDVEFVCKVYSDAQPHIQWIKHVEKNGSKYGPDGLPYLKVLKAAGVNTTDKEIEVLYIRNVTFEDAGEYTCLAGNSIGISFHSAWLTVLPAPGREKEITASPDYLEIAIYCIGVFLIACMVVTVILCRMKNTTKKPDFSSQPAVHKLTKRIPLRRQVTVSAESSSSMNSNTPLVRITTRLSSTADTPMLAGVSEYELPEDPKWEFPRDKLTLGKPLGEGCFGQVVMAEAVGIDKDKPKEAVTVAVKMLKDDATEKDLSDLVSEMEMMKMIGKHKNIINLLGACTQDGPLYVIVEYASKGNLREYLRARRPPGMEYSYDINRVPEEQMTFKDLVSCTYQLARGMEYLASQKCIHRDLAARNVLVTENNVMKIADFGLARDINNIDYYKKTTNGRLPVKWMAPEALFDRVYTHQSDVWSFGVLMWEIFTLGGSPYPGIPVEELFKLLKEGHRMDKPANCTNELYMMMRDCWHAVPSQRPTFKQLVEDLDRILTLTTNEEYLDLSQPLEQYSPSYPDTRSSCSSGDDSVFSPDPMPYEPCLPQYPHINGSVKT
- Assay explanation: FGFR2 Biochemical Caliper Assay
Form field: IC50 (one value per entry).

INSERT INTO results (compound, reported_result) VALUES
  ('C=C(C)C(=O)Nc1ccc(-c2c(-c3ccc(-c4nccs4)cc3)c3c(N)ncnc3n2C)cc1', '0.25 to 1 µM'),
  ('C=C(C)C(=O)Nc1ccc(-c2c(C3=CCC(C(=O)NCC(C)(C)OC)CC3)c3c(N)ncnc3n2C)cc1 (stereo not shown)', '0.25 to 1 µM'),
  ('C=C(C)C(=O)Nc1ccc(-c2c(-c3ccc4c(c3)CS(=O)(=O)C4)c3c(N)ncnc3n2C)cc1', '1 to 100 µM'),
  ('C=CC(=O)N1CCC(n2cc(-c3c(-c4ccc(Oc5cc(C)ccn5)cc4)c4c(N)ncnc4n3C)cn2)CC1', '0.1 to 0.25 µM'),
  ('C=C(C)C(=O)Nc1ccc(-c2c(-c3ccc(C(=O)N4CCC(C)CC4)cc3)c3c(N)ncnc3n2C)cc1', '1 to 100 µM');

Can you look up the measured IC50 of C=C(C)C(=O)Nc1ccc(-c2c(-c3ccc(C(=O)N4CCC(F)(F)CC4)cc3)c3c(N)ncnc3n2C)cc1 for me?
1 to 100 µM

Can you look up the measured IC50 of C=C(C)C(=O)Nc1ccc(-c2c(-c3ccc(Oc4ncc(F)cn4)c(N(C)C)c3)c3c(N)ncnc3n2C)cc1 for me?
1 to 100 µM

====

- Tested on: FGFR2 (Homo sapiens (Human), UniProt P21802)
- Assay explanation: FGFR2 Biochemical Caliper Assay
Reported property: IC50

Example entries begin here.
INSERT INTO results (molecule, reported_result) VALUES
  ('C=C(C)C(=O)Nc1ccc(-c2c(-c3ccc(C(=O)N4CCC[C@@H]4C#N)cc3)c3c(N)ncnc3n2C)cc1', '100 to 250 nM'),
  ('C=CC(=O)N1CCC(n2cc(-c3c(-c4cc(OC)c(Cl)cc4F)c4c(N)ncnc4n3C)cn2)CC1', '1000 to 100000 nM'),
  ('C=C(C)C(=O)Nc1ccc(-c2c(-c3ccc(C(=C)N[C@H]4CCOC4)cc3)c3c(N)ncnc3n2C)cc1', '250 to 1000 nM'),
  ('C=C(C)C(=O)Nc1ccc(-c2c(-c3cncc(N4CCOCC4)c3)c3c(N)ncnc3n2C)cc1', '1000 to 100000 nM');

Can you look up the measured IC50 of C=C(C)C(=O)Nc1ccc(-c2c(-c3ccc(C(=O)N4CCCC4)cc3OC)c3c(N)ncnc3n2C)cc1 for me?
100 to 250 nM

====

Form field: IC50 (one value per entry).
- Tested on: FGFR2 (Homo sapiens (Human))
- Assay explanation: Biochemical FGFR2 Caliper assay

Example entries begin here.
INSERT INTO assay_data (molecule, tested_on, reported_result) VALUES
  ('C=C(C)C(=O)Nc1ccc(-c2c(C3=CC[C@H](C(=O)N4CCCC45COC5)CC3)c3c(N)ncnc3n2C)cc1 (single isomer, unassigned)', 'FGFR2 (Homo sapiens (Human))', '< 100 nM'),
  ('C=C(C)C(=O)Nc1ccc(-c2c(C3=CC[C@@H](S(=O)(=O)N4CCCC4)CC3)c3c(N)ncnc3n2C)cc1', 'FGFR2 (Homo sapiens (Human))', '< 100 nM'),
  ('C=C(C)C(=O)Nc1ccc(-c2c(-c3ccc4[nH]ccc4c3)c3c(N)ncnc3n2C)cc1', 'FGFR2 (Homo sapiens (Human))', '100 to 250 nM'),
  ('C#Cc1ncc(-c2c(-c3ccc(Oc4nccc(C)n4)c(F)c3)c3c(C)ncnc3n2C)c(C)c1F', 'FGFR2 (Homo sapiens (Human))', '< 100 nM'),
  ('C=C(C)C(=O)Nc1ccc(-c2c(-c3ccc4nc(C)sc4c3)c3c(N)ncnc3n2C)cc1', 'FGFR2 (Homo sapiens (Human))', '250 to 1000 nM'),
  ('C#Cc1ccc(-c2c(C3=CC[C@@H](C(=O)N4CCC[C@H]4COC)CC3)c3c(N)ncnc3n2C)c(C)n1 (single isomer, unassigned)', 'FGFR2 (Homo sapiens (Human))', '< 100 nM'),
  ('C=C(C)C(=O)N1CC(c2c(-c3ccc(C(=O)N4CCCC4)cc3)c3c(N)ncnc3n2C)=C[C@@H]1C', 'FGFR2 (Homo sapiens (Human))', '1000 to 100000 nM'),
  ('C#Cc1c(F)cc(-c2c(-c3ccc(Oc4nccc(C)n4)cc3)c3c(N)ncnc3n2C)cc1F', 'FGFR2 (Homo sapiens (Human))', '< 100 nM'),
  ('C=C(C)C(=O)Nc1ccc(-c2c(-c3ccc(Oc4nccc(C)n4)cc3)c3c(N)ncnc3n2C)c(Cl)c1C', 'FGFR2 (Homo sapiens (Human))', '< 100 nM'),
  ('CN(C)C/C=C/C(=O)Nc1cccc(-c2c(-c3ccc(C(=O)N4CCCC4)cc3)c3c(N)ncnc3n2C)c1', 'FGFR2 (Homo sapiens (Human))', '< 100 nM');

What IC50 appears in the records for this molecule with FGFR2 (Homo sapiens (Human))? C=C(C)C(=O)Nc1ccc(-c2nn3ccnc(N)c3c2C2=CCC(C(=O)N3CCCC3)CC2)cc1 (centres unmarked)
1000 to 100000 nM

What IC50 appears in the records for this molecule with FGFR2 (Homo sapiens (Human))? C#Cc1cc(C)c(-c2c(C3=CC[C@]4(CC3)Cc3ccc(C)nc3O4)c3c(N)ncnc3n2C)cn1
< 100 nM

What IC50 appears in the records for this molecule with FGFR2 (Homo sapiens (Human))? C=C(C)C(=O)Nc1ccc(-c2c(C3=CC[C@H](C(=O)N4CCCC45CCC5)CC3)c3c(N)ncnc3n2C)cc1
< 100 nM

What IC50 appears in the records for this molecule with FGFR2 (Homo sapiens (Human))? C=C(C)C(=O)Nc1ccc(-c2c(-c3ccc(Oc4cccc(C)n4)cc3)c3c(N)ncnn3c2CO)cc1
100 to 250 nM

====

- Tested on: FGFR2 (Homo sapiens (Human), UniProt P21802)
- Assay explanation: Biochemical FGFR2 Caliper assay
Reported property: IC50

Example entries begin here.
INSERT INTO assay_data (compound, reported_property, reported_result) VALUES
  ('[2H]C#Cc1cc(C)c(-c2c(-c3ccc(Oc4nccc(C)n4)c(F)c3)c3c(N)ncnc3n2C)cn1', 'IC50', '< 100 nM'),
  ('C#Cc1ncc(-c2c(-c3ccc(Oc4nccc(C)n4)cc3)c3c(C)ncnc3n2C)c(C)n1', 'IC50', '100 to 250 nM'),
  ('C=C(C)C(=O)Nc1ccc(-c2c(-c3ccc(Oc4nccc(C)n4)c(F)c3)c3c(C)ncnc3n2C)cc1', 'IC50', '< 100 nM'),
  ('C=C(C)C(=O)Nc1ccc(-c2c(-c3ccc(Oc4nccc(C)n4)c(F)c3)c3c(C)ncnc3n2C)c(Cl)c1', 'IC50', '< 100 nM'),
  ('C=C(C)C(=O)Nc1ccc(-c2c(-c3ccc(O)c(F)c3)c3c(N)ncnc3n2C)cc1', 'IC50', '250 to 1000 nM');

Can you look up the measured IC50 of C=C(C)C(=O)Nc1ccc(-c2c(-c3ccc(Oc4cccc(C)n4)c(F)c3)c3c(N)ncnc3n2C)c(C)n1 for me?
< 100 nM

Can you look up the measured IC50 of Cc1ccnc(Oc2ccc(-c3c(-c4ccc(C)nc4C)n(C)c4ncnc(N)c34)cc2F)n1 for me?
250 to 1000 nM

Can you look up the measured IC50 of C=C(C)C(=O)Nc1ccc(-c2c(-c3ccc(Oc4nccc(C)n4)cc3)c3c(C)ncnc3n2C)c(C)c1 for me?
1000 to 100000 nM

====

- Tested on: FGFR2 (Homo sapiens (Human), UniProt P21802)
- Assay explanation: Biochemical FGFR2 Caliper assay
pIC50: −log10 of the molar value.
Form field: pIC50 (one value per entry).

INSERT INTO results (compound, reported_result) VALUES
  ('C=CC(=O)N[C@H]1CCN(c2cccc(-c3c(-c4ccc(Oc5cccc(C)n5)cc4)c4c(N)ncnc4n3C)c2)C1 (single isomer, unassigned) [Example 1031]', '> 7.00'),
  ('C=C(C)C(=O)Nc1ccc(-c2c(C3=CC[C@@H](C(=O)NCC4(F)COC4)CC3)c3c(N)ncnc3n2C)cc1 [Example 1022]', '6.00 to 6.60'),
  ('C=CC(=O)N1CC(c2c(C3=CC[C@@H](C(=O)N4CCCC4)CC3)c3c(N)ncnc3n2C)C[C@@H]1C (stereo partly shown) [Example 890]', '4.00 to 6.00'),
  ('C=C(C)C(=O)N[C@H]1C[C@H](c2c(-c3ccc(C(=O)N4CCCC4)cc3)c3c(N)ncnc3n2C)C1 [Example 880]', '4.00 to 6.00');

Can you look up the measured pIC50 of C#Cc1ncc(-c2c(C3=CC[C@H](C(=O)N4CCCC4)CC3)c3c(C)ncnc3n2C)c(C)n1 (single isomer, unassigned) [Example 1169] for me?
> 7.00

Can you look up the measured pIC50 of C=C(C)C(=O)Nc1ccc(-c2c(-c3cc4cccnc4s3)c3c(N)ncnc3n2C)cc1 [Example 1270] for me?
6.00 to 6.60

Can you look up the measured pIC50 of C#Cc1cc2c(cn1)-c1c(-c3ccc(Oc4nccc(C)n4)c(F)c3)c3c(N)ncnc3n1CCO2 [Example 1440] for me?
> 7.00

Cited source: patent US11780845B2
